Data provenance is ChEMBL document CHEMBL1153316.

Test: Inhibition of elastase assessed as specific activity at 0.5 mM
Set-up: scale not given: the % may be the effect or the level left
Peptide text beside a SMILES is read from it.
ATTRIBUTE_MEASURED: Activity (%)
Answers are plain numbers, in %.

A selection of reference data follows.
INSERT INTO measurements (molecule, attribute_measured, numeric_readout) VALUES
  ('CC(C)[C@H](NC(=O)[C@H](CCCNC(=N)N)NC(=O)CNC(=O)[C@@H](N)CO)C(=O)N[C@H](C(=O)N1CCC[C@H]1C(=O)NCC(=O)N[C@@H](Cc1ccc(O)cc1)C(=O)NCC(=O)N[C@@H](Cc1cnc[nH]1)C(=O)N[C@@H](C)C(=O)Nc1ccc([N+](=O)[O-])cc1)C(C)C (HELM PEPTIDE1{S.G.R.V.V.P.G.Y.G.H.A.[O=[N+]([O-])c1ccc(N[*:1])cc1]}$$$$V2.0)', 'Activity', 56),
  ('CSCC[C@H](NC(=O)[C@@H]1CCCN1C(=O)[C@@H](N)CO)C(=O)N[C@@H](Cc1ccccc1)C(=O)N[C@@H](CCCCN)C(=O)NCC(=O)N[C@H](C(=O)Nc1ccc([N+](=O)[O-])cc1)C(C)C (HELM PEPTIDE1{S.P.M.F.K.G.V.[O=[N+]([O-])c1ccc(N[*:1])cc1]}$$$$V2.0)', 'Activity', 7);

Next molecule, Activity to be filled in.
Data point: CSCC[C@H](NC(=O)[C@H](CCSC)NC(=O)[C@@H]1CCCN1C(=O)[C@H](CC(C)C)NC(=O)[C@@H](NC(=O)[C@H](CC(N)=O)NC(=O)[C@H](Cc1ccccc1)NC(=O)[C@@H](N)C(C)C)[C@@H](C)O)C(=O)NCC(=O)N[C@@H](CCCCN)C(=O)N[C@@H](C)C(=O)N[C@@H](CO)C(=O)N1CCC[C@H]1C(=O)N[C@H](C(=O)Nc1ccc([N+](=O)[O-])cc1)C(C)C (HELM PEPTIDE1{V.F.N.T.L.P.M.M.G.K.A.S.P.V.[O=[N+]([O-])c1ccc(N[*:1])cc1]}$$$$V2.0) ; Activity = 89
